The values you see were collected from PubChem BioAssay AID248.

system: L1210 leukemia ip in BDF1 mice, survival T/C; assay: NCI In Vivo Anticancer Drug Screen. Data for tumor model L1210 Leukemia (intraperitoneal) in B6D2F1 (BDF1) mice; settings: endpoint: mean survival time; dose: 400.0 mg/kg/injection; schedule: Q01DX001 (ip); vehicle: saline with Tween-80; higher = longer survival
Toxic doses and inconclusive results are not listed.
READOUT_TYPE: T/C

MOLECULE: CCC1=C/C(=C/c2ccc([N+](=O)[O-])cc2)C(=O)S1
READOUT_TYPE: T/C
RECORDED_MEASUREMENT: 87 % of control
--
MOLECULE: CC1CC(=O)Oc2ccc(C(C)(C)C)cc21 (centres undefined)
READOUT_TYPE: T/C
RECORDED_MEASUREMENT: 95 % of control
--
MOLECULE: CC(=O)n1c(O)c(N=NC(=N)N[N+](=O)[O-])c2ccccc21
READOUT_TYPE: T/C
RECORDED_MEASUREMENT: 101 % of control
--
MOLECULE: O=c1cc(NCc2ccc(Cl)cc2)[nH]c(=O)[nH]1
READOUT_TYPE: T/C
RECORDED_MEASUREMENT: 98 % of control
--
MOLECULE: CC(C)(C(=O)O)c1ccccc1
READOUT_TYPE: T/C
RECORDED_MEASUREMENT: 96 % of control
--
MOLECULE: COC(=O)C1OC1c1cc(OC)ccc1OC (centres undefined)
READOUT_TYPE: T/C
RECORDED_MEASUREMENT: 89 % of control
--
MOLECULE: CCCCCCCCCCCCCCCCC(CCCCCCCCCCCCCCCC)C1CCCCC1
READOUT_TYPE: T/C
RECORDED_MEASUREMENT: 90 % of control
--
MOLECULE: COC(=O)CCCCCN1C(=O)c2cccc([N+](=O)[O-])c2C1=O
READOUT_TYPE: T/C
RECORDED_MEASUREMENT: 100 % of control

query: Given the molecule COc1ccc(Cl)cc1NC(=O)Oc1ccccn1 , write its reported T/C.
result: 92 % of control
